- Tested on: T-47D breast
- method.description: NCI-60 one-dose screen, 48 h (100 = growth as untreated, 0 = no growth, -100 = all killed)
- condition: 10 µM unless noted
About 83,000 compounds went through this panel and 20% of them were active in at least one assay; those are over-represented in the sample as a whole.
measured.property: growth (%)
One number for each entry, in %.

As a guide, the following entries are already answered.
>>> observed("COc1cc(-c2ncn(/C=C\\c3nnco3)n2)cc(C(F)(F)F)c1")
28.9
>>> observed("CN(C)CCN1C(=O)c2cccc3c(-c4ccc(-c5nc6c7ccccc7c7ccccc7c6[nH]5)cc4)ccc(c23)C1=O")
86.7
>>> observed("NC(=O)c1c(NC(=O)c2ccccn2)sc2c1CCC(=O)C2")
5.3

QUERY: Give the reported growth for COc1ccc(/C=C2\COc3ccc(O)cc3C2=O)c(OC)c1 (system: T-47D breast).
RESULT: 56.4

---

- Tested on: UACC-257 melanoma
- method.description: NCI-60 one-dose screen, 48 h (100 = growth as untreated, 0 = no growth, -100 = all killed)
- condition: 10 µM unless noted
About 83,000 compounds went through this panel and 20% of them were active in at least one assay; those are over-represented in the sample as a whole.
Field: growth. Provide a value for each of the compounds that follow.
Give bare numbers, in %.

>>> observed("c1ccc2c(c1)ncn2-c1nc2ccccc2n2c1nc1ccccc12")
104
>>> observed("O=C1CC(c2ccc3c(c2)OCO3)Nc2cc3c(cc21)OCO3 (centres undefined)")
39.6
>>> observed("CC12CC(C#N)CCC1O2 (centres undefined)")
98.3

# context switch: different compound, same growth
QUERY: Hello, I am looking for reported growth with UACC-257 melanoma for CCCCCCCCN(CCCCCCCC)C(=N)c1ccnc2ccccc12 . Could you help?
RESULT: -68.9

---

- System: SF-295 CNS
- method.description: NCI-60 one-dose screen, 48 h (100 = growth as untreated, 0 = no growth, -100 = all killed)
- condition: 10 µM unless noted
Compounds without any hit were thinned out: in the full panel of roughly 83,000, 20% have a hit.
measured.property: growth (%)
Answers are plain numbers, in %.

Please report growth for every entry that follows.
1. COc1ccc(/C=N/NC(=O)Cn2c(-c3ccc(S(C)(=O)=O)cc3)nc3cc(Cl)ccc32)cc1
2. c1ccc2c(c1)ncn2-c1nc2ccccc2n2c1nc1ccccc12
3. CC(C)OC(=O)NNC(=O)c1ccncc1

RESULT:
1. 13.4
2. 90.2
3. 113

Record growth per entry; entries follow.
1. CN1CCN(c2ccc3nc(/N=C/c4ccc5sc(-c6ccc([N+](=O)[O-])cc6)nc5c4)sc3c2)CC1
2. CCCCN(Cc1ccc(C(=O)NO)cc1)C(=O)Nc1ccc(OCCCCCCCCCn2cc(CCCCC(=O)N[C@H](C(=O)N3C[C@H](O)C[C@H]3C(=O)NCc3ccc(-c4scnc4C)cc3)C(C)(C)C)nn2)cc1
3. C=C1C(=O)O[C@H]2[C@H]1CC/C(Cn1cc(CNCCc3c[nH]c4ccccc34)nn1)=C\CC[C@@]1(C)O[C@@H]21
4. CC(C)n1nc(C#Cc2cccc(NC(=O)c3cccc(C(F)(F)F)c3)c2)c2c(N)ncnc21
5. O=C(Nc1ccccc1)c1sc(-c2cccc(C(F)(F)F)c2)cc1O
6. CCOC(=O)c1cnn2c(-c3ccc(Cl)cc3)nc(NCc3ccccc3)nc12
7. O=C1CCC(N2C(=O)c3cccc(NCCCC4CCN(CCNC(=O)c5cc6c(o5)C(=O)c5ccccc5C6=O)CC4)c3C2=O)C(=O)N1 (configuration not stated)

RESULT:
1. 96
2. 92
3. 102
4. -14.9
5. 82.9
6. 58.9
7. -95.2

Batch of 2 compounds: report growth for each.
1. CC(=O)c1ccc2c(c1)CCN2
2. O=c1[nH]nc(-c2ccc(Cl)cc2)cc1Cc1ccccc1

RESULT:
1: 125; 2: 89.6

---

- Test system: SR leukemia
- method.description: NCI-60 one-dose screen, 48 h (100 = growth as untreated, 0 = no growth, -100 = all killed)
- condition: 10 µM unless noted
This is part of a sample that, as a whole, favours compounds with a hit. Of some 83,000 tested, about 20% had one in any assay.
measured.property: growth (%)
Numbers only, in %.

Reference set (5 entries):
>>> observed("CN1CCN(c2ccc3nc(/N=C/c4ccc5sc(-c6ccc([N+](=O)[O-])cc6)nc5c4)sc3c2)CC1")
91.9
>>> observed("CCOC(=O)C1=C(C)NC(SCc2nnc(-c3ccc(Cl)cc3)o2)=NC1c1ccc(Cl)cc1Cl (stereo unspecified)")
37.9
>>> observed("N#Cc1c(N)nc2c(nnn2-c2cccc(C(F)(F)F)c2)c1N")
83.1
>>> observed("COc1cccc(CCC2CCCN(c3cc(C)nc(N)n3)C2)c1 (stereo unspecified)")
26.7
>>> observed("Cc1ccc(Nc2ccc(Nc3ccc(C)cc3S(=O)(=O)O)c3c2C(=O)c2ccccc2C3=O)c(S(=O)(=O)O)c1")
108

Now turn to the next compound.
QUERY: May I ask what growth has been recorded for Cc1c2c(cn1Cc1ccccc1)CCc1cn[nH]c1-2 ?
RESULT: 51.6

---

- Test system: SF-268 CNS
- method.description: NCI-60 one-dose screen, 48 h (100 = growth as untreated, 0 = no growth, -100 = all killed)
- condition: 10 µM unless noted
This is part of a sample that, as a whole, favours compounds with a hit. Of some 83,000 tested, about 20% had one in any assay.
Would you mind telling me the reported growth of each entry?
Answers are plain numbers, in %.

>>> observed("Nc1c(-c2nc3ccc(Br)cc3c(=O)[nH]2)nnn1-c1ccccc1")
60
>>> observed("N#Cc1c(N)nc2c(nnn2-c2cccc(C(F)(F)F)c2)c1N")
91.9
>>> observed("CC(C)n1nc(C#Cc2cccc3cc(-c4cccc(C(F)(F)F)c4)ncc23)c2c(N)ncnc21")
76

Dear colleague, could you please provide growth for the compounds listed below?
1. C/C(Cc1ccc(Cl)cc1)=C(/c1ccc(Cl)cc1)c1ccc(OCCN(C)C)cc1
2. COc1cc2c(c(OC)c1OC)C(=O)/C(=C/c1cc(C)c(O)c(C)c1)S2

RESULT:
[85.6, 56.4]

---

- Test system: BT-549 breast
- method.description: NCI-60 one-dose screen, 48 h (100 = growth as untreated, 0 = no growth, -100 = all killed)
- condition: 10 µM unless noted
This is part of a sample that, as a whole, favours compounds with a hit. Of some 83,000 tested, about 20% had one in any assay. The source made the active and inactive calls. How the source made its calls: active means growth percent below 10; inactive means the rest.
measured.property: growth

Recorded results for 8 compounds are shown here.
>>> observed("CCOc1cc(C2C(Cl)C(=O)N2n2cnnc2)ccc1O (stereo not given)")
"93% (inactive)"
>>> observed("O=C(CCc1nc(-c2cccc(Cl)c2)no1)Nc1ccccn1")
"95.7% (inactive)"
>>> observed("CCOC(=O)C1C(=O)C=C(c2cnccn2)CC1c1ccc(OC)c(OC)c1 (stereo not given)")
"71.5% (inactive)"
>>> observed("NC(=O)c1c(NC(=O)c2ccccn2)sc2c1CCC(=O)C2")
"5.57% (active)"
>>> observed("COc1ccc(Oc2nc(Nc3ccc(N4CCCCC4)nc3)ncc2NC(=O)c2cc(OC)cc(OC)c2)cc1")
"56.5% (inactive)"
>>> observed("COc1ccc(/C(C)=C(\\c2ccc(Cl)cc2)c2ccc(OCCN3CCCCCC3)cc2)cc1F")
"66.3% (inactive)"
>>> observed("CCCCCCCCCCCCCCCCCC1=NCCN1C(=O)OCCO")
"113% (inactive)"
>>> observed("COc1ccc(OC)c(/C=C2\\COc3ccc(O)c(O)c3C2=O)c1")
"39% (inactive)"

Give growth for each of the items listed below.
1. CN1CCN(c2ccc3nc(/N=C/c4ccc5sc(-c6ccc([N+](=O)[O-])cc6)nc5c4)sc3c2)CC1
2. Clc1ccc(-c2nnc(Cn3ccnc3)o2)cc1

RESULT:
92.4% (inactive)
120% (inactive)

---

- Test system: TK-10 renal
- method.description: NCI-60 one-dose screen, 48 h
- condition: 10 µM unless noted
This is part of a sample that, as a whole, favours compounds with a hit. Of some 83,000 tested, about 20% had one in any assay. Calls of active or inactive are those of the source. The calls were made as follows: active = growth percent below 10; inactive = the rest.
Entry note: the call must match one of Yes (active), No (inactive)

These recorded examples may help you get a feel for the data.
>>> label_value("Clc1ccc2[nH]c3c(NCCCN4CCOCC4)ncnc3c2c1")
"No"
>>> label_value("CCCCCCN(CCCCCC)CC(O)c1cccc2ccc(Cl)cc12 (stereo unspecified)")
"No"
>>> label_value("CNCCNc1nc2ccccc2c2c(=O)c3cc(F)ccc3oc12")
"No"

QUERY: Lab log entry: NC(=S)N/N=C/C(=O)O — outcome as called in the assay?
RESULT: No

QUERY: How was COc1ccc(/C=N/NC(=O)Cn2c(-c3ccc(S(C)(=O)=O)cc3)nc3cc(Cl)ccc32)cc1 classified in this test?
RESULT: No

QUERY: Status in this test for CC/C=C/[C@@H]1C=C[C@@H]2CCC[C@H]2[C@@H]1CC[C@H](O)[C@H](C)N ?
RESULT: Yes

The reported numbers originate from PubChem BioAssay (NCI).
